Recorded values, source patent US9045415B2.

studySystem: recombinant EWS-FLI1 (Homo sapiens, UniProt Q01543+Q01844)
Sequence (Q01543 whole entry): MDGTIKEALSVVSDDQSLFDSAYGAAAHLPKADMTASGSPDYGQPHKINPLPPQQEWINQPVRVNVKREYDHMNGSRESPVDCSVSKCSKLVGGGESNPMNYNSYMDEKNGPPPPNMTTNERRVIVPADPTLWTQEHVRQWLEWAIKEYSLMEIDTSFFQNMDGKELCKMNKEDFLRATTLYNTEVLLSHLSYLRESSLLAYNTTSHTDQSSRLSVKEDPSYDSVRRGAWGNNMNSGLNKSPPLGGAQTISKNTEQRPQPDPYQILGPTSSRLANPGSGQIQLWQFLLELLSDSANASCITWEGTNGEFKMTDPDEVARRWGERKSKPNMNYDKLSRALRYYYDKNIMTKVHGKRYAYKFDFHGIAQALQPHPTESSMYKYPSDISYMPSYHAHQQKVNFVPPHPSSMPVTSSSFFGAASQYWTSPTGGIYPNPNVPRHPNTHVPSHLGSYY
Sequence (Q01844 whole entry): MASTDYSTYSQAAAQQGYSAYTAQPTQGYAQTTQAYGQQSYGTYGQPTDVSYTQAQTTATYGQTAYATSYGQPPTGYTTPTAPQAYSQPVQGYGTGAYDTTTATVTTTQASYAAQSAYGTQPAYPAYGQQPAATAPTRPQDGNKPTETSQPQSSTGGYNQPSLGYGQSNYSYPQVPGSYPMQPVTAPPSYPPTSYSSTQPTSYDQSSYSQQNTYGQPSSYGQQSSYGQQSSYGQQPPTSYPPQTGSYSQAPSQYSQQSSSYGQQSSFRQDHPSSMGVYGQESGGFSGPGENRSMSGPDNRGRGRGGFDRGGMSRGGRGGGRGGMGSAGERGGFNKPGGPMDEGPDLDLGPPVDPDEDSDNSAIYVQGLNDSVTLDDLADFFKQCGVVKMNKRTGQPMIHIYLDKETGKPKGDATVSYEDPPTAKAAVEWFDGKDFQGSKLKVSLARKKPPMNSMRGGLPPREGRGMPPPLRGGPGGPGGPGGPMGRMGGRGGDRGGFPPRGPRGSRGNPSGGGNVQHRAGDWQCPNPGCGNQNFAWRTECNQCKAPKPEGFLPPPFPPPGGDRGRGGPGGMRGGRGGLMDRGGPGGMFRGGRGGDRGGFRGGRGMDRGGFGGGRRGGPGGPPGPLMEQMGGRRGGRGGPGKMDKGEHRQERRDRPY
assayText: Surface plasmon resonance (Biacore) binding to EWS-FLI1
conditionNotes: FIG. 24 experiment; read-out: KD
Record form. Attribute: pKd. Fill in for each entry.
One number for each entry, as −log10 of the molar value.

Some compounds with recorded pKd:
compound	studySystem	pKd
COc1ccc(C(=O)CC2(O)C(=O)Nc3c(Cl)ccc(Cl)c32)cc1 (stereo not drawn)	recombinant EWS-FLI1 (Homo sapiens, UniProt Q01543+Q01844)	5.34
O=C(CC1(O)C(=O)N(Cc2ccccc2)c2c(Cl)ccc(Cl)c21)c1ccc(Cl)cc1 (stereo not drawn)	recombinant EWS-FLI1 (Homo sapiens, UniProt Q01543+Q01844)	4.99

Fill in the blank: the reported pKd of O=C(CC1(O)C(=O)Nc2c(Cl)ccc(Cl)c21)c1ccc(O)cc1 (stereo not drawn) is ____. 5.03

###

Tested on: cell lines that lack EWSFLI1
assayText: Cell growth (WST), cell lines that lack EWS-FLI1
Type: cell-based
conditionNotes: 72 h, 3 days
pIC50: −log10 of the molar value.
measuredParameter: pIC50

Fill in the blank: the reported pIC50 of COc1ccc(C(=O)CC2(O)C(=O)Nc3c(Cl)ccc(Cl)c32)cc1 (stereo not shown) is ____. < 4.60
